Literature roundup of Tyrosine-protein kinase JAK3 (Homo sapiens, UniProt P52333) data, read-out pIC50.
pIC50: −log10 of the molar value.

These solved cases illustrate the format of a correct answer.
[[record]]
structure_string = "O=C(CN1CCC(O)CC1)Nc1cccc(-c2cnc3ccccc3n2)c1"
target_or_system = "Tyrosine-protein kinase JAK3 (Homo sapiens, UniProt P52333)"
result_value = "< 5.00"

[[record]]
structure_string = "O=C(NCCS(=O)(=O)N1CCC1)c1noc2c1CN(c1ncnc3[nH]ccc13)CC2"
target_or_system = "Tyrosine-protein kinase JAK3 (Homo sapiens, UniProt P52333)"
result_value = "6.30 to 7.00"


Query :: I have this compound here, `CN(c1ncnc2[nH]ccc12)C1CCC2(CC1)CCN(C(=O)c1cccnc1)CC2` , and I need its recorded pIC50.
Result :: 6.00 to 7.00

Query :: Request: `COCCCn1c(-c2ccccc2)nc2cnc(-n3cnc4ccccc43)nc21`
Result :: < 6.00

Query :: Request: `O=C(CN1CCOCC1)Nc1cccc(-c2cnc3ccccc3n2)c1`
Result :: 4.47
